Catalogue of compounds with associated pKd
molecular target: mutant MGL (Homo sapiens, UniProt Q99685, L169S/L176S); test: MGL ThermoFluor assay - mutant; assay type: binding; settings: ThermoFluor, compound concentration measured by qNMR, read-out: MGL mutant ThermoFluor qKd (using qNMR conc.)
Sequence (Q99685 whole entry L169S/L176S): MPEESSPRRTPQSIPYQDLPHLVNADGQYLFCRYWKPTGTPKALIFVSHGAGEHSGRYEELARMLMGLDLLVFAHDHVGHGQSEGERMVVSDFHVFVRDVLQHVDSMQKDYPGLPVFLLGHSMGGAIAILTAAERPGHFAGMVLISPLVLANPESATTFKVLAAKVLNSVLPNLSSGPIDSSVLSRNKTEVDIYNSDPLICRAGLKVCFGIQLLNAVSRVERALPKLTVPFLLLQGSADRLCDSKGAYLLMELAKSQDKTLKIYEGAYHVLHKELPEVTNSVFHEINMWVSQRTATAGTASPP
pKd: −log10 of the molar value.

COMPOUND	COMPARISON OPERATOR	pKd
Cc1c(C(=O)N2CC(N3CCN(C(=O)c4nccs4)CC3)C2)[nH]c2ccc(Br)cc12 [Cpd 682]	=	7.85
Cc1nc2cc(Cl)ccc2cc1C(=O)N1CC(N2CCN(C(=O)c3nccs3)CC2)C1 [Cpd 826]	=	6.18
O=C(c1ccc2c(-c3ccccc3)c(-c3ccccc3)[nH]c2c1)N1CC(N2CCN(C(=O)c3nccs3)CC2)C1 [Cpd 1119]	=	7.70
O=C(c1ccc2c(ccn2-c2ccc(F)cc2)c1)N1CC(N2CCN(C(=O)C(F)(F)F)CC2)C1 [Cpd 1079]	=	6.57
Cc1nn(Cc2ccc(Cl)cc2)c2sc(C(=O)N3CC(N4CCN(C(=O)c5nccs5)CC4)C3)cc12 [Cpd 1053]	=	6.61
O=C(c1ccc2c(ccn2-c2ccc(C(F)(F)F)cc2)c1)N1CCN(C2CN(C(=O)c3ccc[nH]3)C2)CC1 [Cpd 1120]	=	7.70
Cc1ccnc(-n2ccc3cc(C(=O)N4CC(N5CCN(C(=O)c6nccs6)CC5)C4)ccc32)c1 [Cpd 1128]	=	7.74
Cc1c(C(=O)N2CC(N3CCN(C(=O)c4nccs4)CC3)C2)nc2ccc(Br)cn12 [Cpd 868]	<	4.64
